- System: methyl bromide and methyl iodide production in E. Coli
- assay info: Methyl halide production by heterologous MHTs expressed in E. coli (Example 8, headspace GC/MS)
- Format: cell-based
- measurement conditions: FIG. 7
measurement label: methyl halide transferase activity

[
  {
    "molecule": "FB: methyl halide transferase from Flavobacteria bacterium BBFL7, SEQ ID NO: 19 (protein, listed as Flavobacteria bacterium) MPLNKQYWEDRYKNNSTGWDLGIISTPIKEYVNQLENKNSKILIPGAGNAHEATYLVKNGFKNIFILDIALSPLKFAKQRSKLPEEHLIQQDFFDHKGSYDLIIEQTFFCALEPRFRESYVKKIHMLLRDQGCLIGVLFNFENNLSSPPFGGSINEYLNLFEPYFEIVTMEPCNNSVIERQGKEIFIKLKKKK",
    "measurement label": "methyl halide transferase activity",
    "reading": "insignificant activity"
  },
  {
    "molecule": "RB: methyl halide transferase from Robiginitalea bofirmata HTCC2501, SEQ ID NO: 17 (protein, listed as Robiginitalea biformata) MTDLDRDFWEDRYRAGTDRWDLGGPSPPLTAYIDGLTDQELRILVPGAGRGYEAEYLYRAGFENLTIVDLARRPLDDLRRRLPELPAAALQQTDFFSFRGGPFDLILEHTFFCALPPARRPDYVQAMHRLLVPGGRLAGLFFDFPLTEDGPPFGGSETEYRNRFSSLFHIRKLERARNSIPPRAGTELFFIFEKK",
    "measurement label": "methyl halide transferase activity",
    "reading": "insignificant activity"
  },
  {
    "molecule": "HH: methyl halide transferase from Halorhodospira halophila SL1, SEQ ID NO: 21 (protein, listed as Halorhodospira halophila) MSGDPDPRRAPWEARWREGRTGWDRGGVSPTLEAWLSAGVIPGRRVLVPGAGRGYEVEALARRGYKVTAVDIAAEACQQLRDGLDAAGVEARVVQADLLAWQPDTPFDAVYEQTCLCALDPADWPAYEQRLYGWLRPGGVLLALFMQTGASGGPPFHCALPEMATLFDSERWQWPAEPPRQWPHPSGRWEEAVRLLRR",
    "measurement label": "methyl halide transferase activity",
    "reading": "insignificant activity"
  },
  {
    "molecule": "MM: methyl halide transferase from Maricaulis maris MCS10, SEQ ID NO: 18 (protein, listed as Maricaulis maris) MTHDENRSAFDWEARFIDGNTPWERGALHPAFEAWQHQSAFAAGDRALIPGCGRSPELLALAQAGLAVTGADLSGTAMAWQRKLFADAGQQVELITGDVFDWQPQQALDLVYEQTFLCAIHPRLRTRYEEALARWLKPGGRLYALFMQKPERGGPPFDCALDAMRALFPAERWTWPAEADIQPWPHPQLNGKAELGAVLIRR",
    "measurement label": "methyl halide transferase activity",
    "reading": "insignificant activity"
  }
]
